System: MDA-N
Experiment: NCI tumour cell line growth inhibition, 48 h
Activity calls are given as the source filed them. Cut-off read from the data, not from the text of the source: active = GI50 up to about 1.1 µM and inactive = higher.
Please go through the items and note down their GI50.

# GI50 lookup, item N#CC(O)CCOCc1ccccc1 (stereo unspecified)
86.7 µM (inactive)

# GI50 lookup, item O=c1cc(NNc2ccccc2)[nH]c(=O)[nH]1
20.2 µM (inactive)

# GI50 lookup, item [N-]=[N+]=CC(=O)OCCCCl
> 100 µM (inactive)

# GI50 lookup, item Cc1[nH]c2c(c1Cc1ccccc1)C1=NC=C(O)NN1C=N2
> 100 µM (inactive)

# GI50 lookup, item Cc1cccc(N/C(Sc2ccccc2)=C(/C(Cl)=C(Cl)Cl)[N+](=O)[O-])c1
19.4 µM (inactive)

# GI50 lookup, item O=C1C=C(Br)c2c(-c3ccccc3)oc3cccc1c23
18.4 µM (inactive)

# GI50 lookup, item COc1cc(CNNC(N)=S)cc(OC)c1OC
> 100 µM (inactive)

# GI50 lookup, item Clc1ccc(C2=C(c3ccccc3)C(c3ccc(Cl)cc3)N3C(=N[C@H]4CCCC[C@@H]43)N2)cc1 (stereo partly specified)
14.7 µM (inactive)

# GI50 lookup, item O=C1/C(=C/c2ccccc2)CCC/C1=C\c1ccccc1
2.79 µM (inactive)

# GI50 lookup, item COc1cc(N(CCC#N)CCC#N)ccc1C(/N=N/c1ccccc1C)=N\NC(=O)c1ccc(C)cc1
23.8 µM (inactive)

# GI50 lookup, item Cc1cc(NS(=O)(=O)c2ccc(Nc3c4ccccc4nc4c(C(=O)NCCO)cccc34)cc2)no1
35.8 µM (inactive)

====

Tested on: HT-29
Assay: NCI tumour cell line growth inhibition, 48 h
The source made the active and inactive calls. Rule as the data show it: active = GI50 up to about 1.1 µM and inactive = higher.
quantity: GI50

# GI50 lookup, item C/C(=C/c1c(C)[nH]c(=O)[nH]c1=O)C(=O)O
> 1370 µM (inactive)

# GI50 lookup, item CC(C)OC(=O)C1=C(O)c2ccccc2S(=O)(=O)N1
> 100 µM (inactive)

# GI50 lookup, item Cc1cccc(C)c1NC(=O)C(=O)C1C(=O)N(c2ccccc2)N=C1N (stereo unspecified)
> 100 µM (inactive)

# GI50 lookup, item c1ccc(NC[Si]23OCCN(CCO2)CCO3)cc1
> 100 µM (inactive)

# GI50 lookup, item O=C1/C(=C/c2cccs2)N=C(c2ccccc2)N1C1Nc2cc3c(cc2S1)NC(N1C(=O)/C(=C/c2cccs2)N=C1c1ccccc1)S3 (stereo unspecified)
25.3 µM (inactive)

# GI50 lookup, item CCOC(=O)NC(=O)c1cn(CCCOC(=O)CCCCCCCCC(=O)OCCCn2cc(C(=O)NC(=O)OCC)c(=O)[nH]c2=O)c(=O)[nH]c1=O
34.8 µM (inactive)

# GI50 lookup, item CCOC(=O)c1cc(-c2ccc(-c3cc(C(=O)OCC)c(C#N)c(N)c3C#N)cc2)c(C#N)c(N)c1C#N
> 100 µM (inactive)

# GI50 lookup, item Cc1ccc2c(=O)c(C(=O)Nn3c(C)csc3=S)c[nH]c2n1
> 100 µM (inactive)

# GI50 lookup, item CC1=CC(=O)NCCN1C
> 100 µM (inactive)

# GI50 lookup, item O=C(O)CCCc1ccc2ccc3ccccc3c2c1
83.9 µM (inactive)

# GI50 lookup, item CCC(=O)OC1CCn2c1nc1c2C(=O)C(C)=C(NC(C)=O)C1=O (stereo unspecified)
1.69 µM (inactive)

# GI50 lookup, item CCCCCCCCCCCCCCCCCc1nc(C#N)c(N)o1
> 100 µM (inactive)

# GI50 lookup, item O=C1NC(=O)/C(=C/c2ccc(S(=O)(=O)N/N=C\C(O)C(O)C(O)C(O)CO)cc2)N1 (stereo unspecified)
> 100 µM (inactive)

# GI50 lookup, item NC(=S)N/N=C/C(O[C@@H](/C=N/NC(N)=S)CO)n1cnc2c(N)ncnc21 (stereo partly specified)
> 62.5 µM (inactive)

# GI50 lookup, item O=C1/C(=C/c2ccco2)NC(=S)N1CN1CCOCC1
> 100 µM (inactive)

# GI50 lookup, item Cc1ccc([N+](=O)[O-])cc1S(=O)(=O)Nc1ccc(C(=O)/C=C/c2ccccc2)cc1
25.4 µM (inactive)

# GI50 lookup, item Cc1ccc(/C=C/C(=O)c2sc(-n3nc(-c4ccccc4)cc3-c3ccccc3)nc2C)cc1
55 µM (inactive)

# GI50 lookup, item CC1=C2c3c(C)ccc4ccc(C)c(c34)C2(O)C(C)C1=O (stereo unspecified)
> 100 µM (inactive)

# GI50 lookup, item CCCSc1nc(COC(=O)NC)c(COC(=O)NC)n1C
> 100 µM (inactive)

# GI50 lookup, item CC(=O)Oc1c2c(c(OC(C)=O)c3c1n(C(C)=O)c1ccccc1n3C(C)=O)n(C(C)=O)c1ccccc1n2C(C)=O
3.18 µM (inactive)

# GI50 lookup, item Nc1nc(N)nc(CCCc2nc(N)nc(N)n2)n1
> 100 µM (inactive)
